# SYSTEM: T1, human TL1A extracellular domain with N-terminal HIS and FLAG tag (human, UniProt O95150 72-251)
# T1 construct: the whole entry is named
# T1 sequence: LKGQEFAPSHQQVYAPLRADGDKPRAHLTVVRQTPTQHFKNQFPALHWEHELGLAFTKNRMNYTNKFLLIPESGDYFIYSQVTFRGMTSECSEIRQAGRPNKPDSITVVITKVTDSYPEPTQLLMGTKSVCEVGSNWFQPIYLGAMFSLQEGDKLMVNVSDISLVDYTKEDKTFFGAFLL
# ASSAY NOTES: SPR Run 4, purified Ab captured on Protein A, TL1A 5 ug/mL, timepoint 220
VALUE KIND: TL1A Binding Level (Late) (RU)
Write the number in RU without appending the unit.

The cases that follow already have their TL1A Binding Level (Late) on record.
{"columns": ["BINDER", "UNITS SYMBOL", "TL1A Binding Level (Late)"],
 "data": [
  ["320-332 (antibody, human IgG1, name in Kabat numbering, V domains shown, human IgG1, lambda) VH: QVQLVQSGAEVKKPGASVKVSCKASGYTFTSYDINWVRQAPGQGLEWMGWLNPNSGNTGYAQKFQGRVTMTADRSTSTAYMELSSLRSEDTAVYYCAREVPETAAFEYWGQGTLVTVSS VL: QSVLTQPPSVSGAPGQRVTISCTSSSSDIGAGLGVHWYQQLPGTAPKLLIEGYYNRPSGVPDRFSGSKSGTSASLTITGLLPEDEGDYYCQSYAGTLSALFGGGTKLTVLG", "RU", 44],
  ["320-328 (antibody, human IgG1, name in Kabat numbering, V domains shown, human IgG1, lambda) VH: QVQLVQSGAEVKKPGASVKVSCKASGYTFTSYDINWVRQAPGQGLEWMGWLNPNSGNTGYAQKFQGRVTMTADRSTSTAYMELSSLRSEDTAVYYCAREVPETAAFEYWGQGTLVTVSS VL: QSVLTQPPSVSGAPGQRVTISCTSSSSDIGAGLGVHWYQQLPGTAPKLLIEGYYNRPSGVPDRFSGSKSGTSASLTITGLLPEDEGDYYCQSHDGTLSALFGGGTKLTVLG", "RU", 146],
  ["320-315 (antibody, human IgG1, name in Kabat numbering, V domains shown, human IgG1, lambda) VH: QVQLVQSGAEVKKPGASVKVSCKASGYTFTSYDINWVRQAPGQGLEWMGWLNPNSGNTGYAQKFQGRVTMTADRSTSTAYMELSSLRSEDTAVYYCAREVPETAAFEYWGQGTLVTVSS VL: QSVLTQPPSVSGAPGQRVTISCTSSSSDIGAGLGVHWYQQLPGTAPKLLIEGYYNRPSGVPDRFSGSKSGTSASLTITGLLPEDEGDYYCLSYDGTLSALFGGGTKLTVLG", "RU", 82]
]}

Data request: Looking for the measured TL1A Binding Level (Late) of 320-369 (antibody, human IgG1, name in Kabat numbering, V domains shown, human IgG1, lambda) VH: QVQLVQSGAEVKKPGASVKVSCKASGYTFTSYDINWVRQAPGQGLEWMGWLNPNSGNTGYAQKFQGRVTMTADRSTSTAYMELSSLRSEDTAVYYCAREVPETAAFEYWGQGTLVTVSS VL: QSVLTQPPSVSGAPGQRVTISCTSSSSDIGAGLGVHWYQQLPGTAPKLLIEGYYNRPSGVPDRFSGSKSGTSASLTITGLLPEDEGDYYCQSYDGTLLALFGGGTKLTVLG , can you help?
Data returned: 60

Data request: Looking for the measured TL1A Binding Level (Late) of 320-337 (antibody, human IgG1, name in Kabat numbering, V domains shown, human IgG1, lambda) VH: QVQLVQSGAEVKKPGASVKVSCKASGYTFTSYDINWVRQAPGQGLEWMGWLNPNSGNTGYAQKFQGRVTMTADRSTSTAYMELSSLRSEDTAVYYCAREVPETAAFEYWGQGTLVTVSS VL: QSVLTQPPSVSGAPGQRVTISCTSSSSDIGAGLGVHWYQQLPGTAPKLLIEGYYNRPSGVPDRFSGSKSGTSASLTITGLLPEDEGDYYCQSYLGTLSALFGGGTKLTVLG , can you help?
Data returned: 15
